- ASSAY SYSTEM: BDBV GP [change] (Bundibugyo ebolavirus (BDBV), strain 200706291 Uganda)
- EXPERIMENTAL DETAILS: ELISA, coated recombinant GP ΔTM
MEASUREMENT TYPE: EC50 (µg/mL)

BINDER: EBOV-511 (antibody, V domains shown) VH: QLQLQESGPGLVKPSETLSLSCTVSGDSISANNYFWGWIRQPPGKELEWIGSIHNSGSTYYNPSLKSRVTTSVDTSRTQFSLKLHSVTAADAAIYYCARHLAPISGVIFIPSFFDSWGQGTLVTVSS VL: EIVMTQSPATLSVSPGERATLSCRASQSVSSNLAWYQQRPGQAPRLLIFDASTRATGVPARFSGSGSGTEFTLTISSLQSEDFALYYCQQYNDWPPRLTFGGGTKVEIK
MEASUREMENT UNITS: µg/mL
MEASURED RESULT: 0.289

BINDER: EBOV-510 (antibody, V domains shown) VH: QVQLQESGPGLVKPSQTLSLTCTVSGGSITSGDYYLTWVRQPPGKGLEWIGHIYYSGSTSYNPSLKSRLLMSVDTSKNQFSLRLSSVTAADTAVYYCARESDGDPSRLYFYFAMDVWGQGTLVTVSS VL: QSALTQPASVSGSPGQSITISCTGTSSDVGGSYFVSWYQHHPGKAPKLMISEVSNRPSGVSNRFSGSKSGNTASLTISGLRTEDEADYYCSSYTSNTTLVFGGETKVTVL
MEASUREMENT UNITS: µg/mL
MEASURED RESULT: 0.261

BINDER: EBOV-514 (antibody, V domains shown) VH: QVQLQESGPGLVKPSQTLSLTCTVSGASITGGDDFWSWIRQPPGKGLEWIGFIHHSGNAYYRSSLKSRVHFSVDTSKDQFSLTLTSVTAADTAVYYCARDKAQAYGLLYHYHTDVWGKGTLVTVSS VL: EIVMTQSPATLSVSPGERATLSCRASQSVSSNLAWYQQKPGLAPRLLIYGAFTRATDIPDRFSGSGSGTEFTLTISSLQSEDFAIYYCQYYNDWPPGYTFGQGTKLEIK
MEASUREMENT UNITS: µg/mL
MEASURED RESULT: 0.01
